System: HT-29 cells
Test: HT29 Cells 0FBS Assay In Vitro (TNF-α/SMAC mimetic/zVAD-FMK induced necroptosis, CellTiter-Glo cell viability)
Format: cell-based
Conditions: Homo sapiens; HT-29 cells, FBS free medium, TNF-α (10 ng/ml), SMAC mimetic (6 uM), zVAD-FMK (10 μM), 20 hours; geometric mean EC50; read-out: Cell activity (EC50) of Compounds 117-281
pEC50: −log10 of the molar value.
# pEC50 per record follows

Record excerpt, results attached:
Cc1nn(-c2cc(OC3CN(C(=O)N4N=CC[C@H]4c4cc(F)cc(F)c4)C3)c(F)cn2)c(C)c1C(=O)NC1CCOCC1 [compound 216]    7.00 to 10.00
Cc1cn(C)nc1-c1cc(OC2CN(C(=O)N3N=CC[C@H]3c3cc(F)cc(F)c3)C2)c(F)cn1 [compound 219]    7.00 to 10.00
Cc1cnn(C)c1-c1cnc(F)c(OC2CN(C(=O)N3N=CC[C@H]3c3cc(F)cc(F)c3)C2)c1 [compound 208]    7.00 to 10.00

Request: Item under review: Cc1nn(-c2cc(OC3CN(C(=O)N4N=CC[C@H]4c4cc(F)cc(F)c4)C3)c(F)cn2)c(C)c1N1CCCC1=O [compound 270] . Reported pEC50?
Response: 7.00 to 10.00

Request: Item under review: Cc1nn(-c2cc(OC3CN(C(=O)N4N=CC[C@H]4c4cc(F)cc(F)c4)C3)c(F)cn2)c(C)c1S(N)(=O)=O [compound 220] . Reported pEC50?
Response: 7.00 to 10.00

Request: Item under review: Cc1c(NCC(N)=O)nn(C)c1-c1cc(OC2CN(C(=O)N3N=CC[C@H]3c3cc(F)cc(F)c3)C2)c(F)cn1 [compound 145] . Reported pEC50?
Response: 7.00 to 10.00

Request: Item under review: Cc1nn(CC2CC2)c(C)c1-c1ncc(F)c(OC2CN(C(=O)N3N=CC[C@H]3c3cc(F)cc(F)c3)C2)n1 [compound 158] . Reported pEC50?
Response: 7.00 to 10.00

# credit: patent US12655125B2
